Experimental System: Epidermal growth factor receptor (Homo sapiens)
Test Summary: EGFR binders on small-molecule microarrays, primary screen, biochemical, small-molecule microarray, 635 nm fluorescence (AID 1104);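 further: score merges 667 nm emission intensity with spot signal to noise over triplicate slides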
Condition: EGFR binding, higher = more signal
Observed Property: composite z-score
Number, no unit, nothing else.

## Task Requested field: composite z-score. Item: `COC(=O)[C@@]1(Cc2ccccc2CN=[N+]=[N-])N=C(c2ccc(OCCCO)cc2)O[C@H]1c1ccccc1N=[N+]=[N-]`
## Result -0.0185

## Task Can you check C=CCC(OC(C)=O)[C@@H]1[C@@H](N(Cc2cccc3ccccc23)C(=O)Cc2ccc(F)cc2)c2cc(OCCCO)ccc2N1C(=O)Cc1ccc2ccccc2c1 (stereo partly drawn) next?
## Result -0.285

## Task Can you check C=CCC(OC(C)=O)[C@@H]1[C@@H](N(Cc2ccc(-c3ccccc3)cc2)C(=O)c2ccc(-c3ccccc3)cc2)c2cc(OCCCO)ccc2N1C(=O)Cc1ccc(OC)cc1 (stereo partly drawn) next?
## Result -0.25
